The following variants are listed with their measured self-cleavage values.
B1: Hairpin Ribozyme (parent)
chain: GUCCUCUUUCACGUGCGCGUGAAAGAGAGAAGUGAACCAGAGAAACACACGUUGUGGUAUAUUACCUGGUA

- Variants of: B1
- EXPERIMENT NOTES: self-cleavage, relative activity (ratio to wild type); higher = more cleavage; co-transcriptional
Keep the answer to the number alone.

Some variants with known self-cleavage results, for comparison:
>>> reading("GUCCUCUUUCACGUGCGCGUGAAAGAGAGAAGUGAACCAGAGCAACACUCGUUGUGGUAUAUUACCUGGUA [A43C A49U]")
0.142
>>> reading("GUCCUCUUUCGCGUGUGCGUGAAAGAGAGAAGUGAACCAGAGAAACACACGUUGUGGUAUAUUACCUGGUA [A11G C16U]")
0.902

Now for the variant whose self-cleavage we want.
Task: # get_value(readout='self-cleavage', item= GUCCUCUUUUACGUGCGCGUGAAAGAGAGAAGUGAACCAGAGGAACACACGUUGUGGUAUAUUACCUGGUA [C10U A43G] )
Result: 0.113
